Target: T1, hPRLR.mFc (soluble dimeric human PRLR) (human)
T1 construct: dimeric PRLR construct
T1 chain: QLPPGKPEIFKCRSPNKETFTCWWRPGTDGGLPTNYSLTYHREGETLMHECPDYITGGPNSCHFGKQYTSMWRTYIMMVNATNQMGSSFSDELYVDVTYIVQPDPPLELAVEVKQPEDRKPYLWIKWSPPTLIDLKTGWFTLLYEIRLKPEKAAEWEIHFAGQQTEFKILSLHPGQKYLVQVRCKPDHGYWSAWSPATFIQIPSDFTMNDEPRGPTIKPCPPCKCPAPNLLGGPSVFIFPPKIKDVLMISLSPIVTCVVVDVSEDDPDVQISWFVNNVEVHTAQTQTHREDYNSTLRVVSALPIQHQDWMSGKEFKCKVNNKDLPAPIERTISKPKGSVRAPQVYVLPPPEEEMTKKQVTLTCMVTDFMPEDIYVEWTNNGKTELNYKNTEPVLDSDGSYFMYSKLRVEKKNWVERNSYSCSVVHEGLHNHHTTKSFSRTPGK
Test: SPR (Biacore), antibody capture, 37 C
PROPERTY_NAME: koff (s⁻¹)
Record the value in s⁻¹, omitting the unit from your answer.

Answered examples (2):
Would you kindly share the measured koff for H1H6782P (antibody, human IgG1, V domains shown, human IgG1 Fc (H1H)) VH: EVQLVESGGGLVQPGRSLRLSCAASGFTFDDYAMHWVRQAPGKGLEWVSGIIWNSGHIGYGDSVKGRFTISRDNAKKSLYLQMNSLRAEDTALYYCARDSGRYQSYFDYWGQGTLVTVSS VL: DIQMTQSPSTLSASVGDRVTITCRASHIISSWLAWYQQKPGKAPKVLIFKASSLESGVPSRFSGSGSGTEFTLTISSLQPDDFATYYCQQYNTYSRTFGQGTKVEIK ?
0.00013

GET /values?readout=koff&item= H1H6803P (antibody, human IgG1, V domains shown, human IgG1 Fc (H1H)) VH: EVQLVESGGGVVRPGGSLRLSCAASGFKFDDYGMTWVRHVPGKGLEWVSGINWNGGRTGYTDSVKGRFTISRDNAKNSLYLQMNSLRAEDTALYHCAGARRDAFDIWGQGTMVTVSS VL: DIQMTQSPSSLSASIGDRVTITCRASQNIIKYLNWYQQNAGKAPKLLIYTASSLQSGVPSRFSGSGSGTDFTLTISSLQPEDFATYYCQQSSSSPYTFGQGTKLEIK
6.2e-05

Now let's try a different one.
Reported koff for H1H6762P (antibody, human IgG1, V domains shown, human IgG1 Fc (H1H)) VH: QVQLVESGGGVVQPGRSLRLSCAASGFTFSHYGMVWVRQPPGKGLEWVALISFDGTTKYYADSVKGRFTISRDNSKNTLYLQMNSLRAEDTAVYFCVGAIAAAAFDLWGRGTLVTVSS VL: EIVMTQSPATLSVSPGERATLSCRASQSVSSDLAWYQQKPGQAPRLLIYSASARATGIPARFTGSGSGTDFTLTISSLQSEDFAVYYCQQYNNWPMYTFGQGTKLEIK : what is it?
0.000103
